Origin of values: patent US9919998B2

- Test system: Mycobacterium tuberculosis H37Rv
- assay-remarks: Microplate Alamar Blue assay (MABA) MIC, M. tuberculosis
- Assay type: cell-based
- condition-info: read-out: MIC Mycobacterium tuberculosis H37Rv
reported-metric: MIC (µg/mL)
Report the figure in µg/mL without appending any unit label.

Q: Look up MIC: O=C(NC(Cc1ccccc1)C(=O)Nc1cccc2cnccc12)c1ccccc1 (centres unmarked)
Ans: 3.13

Q: Further, for COc1cccc(NC(=O)C(Cc2ccccc2)NC(=O)c2ccccc2F)c1C (centres unmarked) ?
Ans: 12.5

Q: Further, for Cc1ccc(F)cc1NC(=O)C(Cc1ccccc1)NC(=O)c1ccccc1Cl (centres unmarked) ?
Ans: 1.56

Q: Further, for CC1CN(c2ccccc2NC(=O)C(Cc2ccc(O)cc2)NC(=O)c2ccccc2)CC(C)O1 (centres unmarked) ?
Ans: 6.25

Q: Further, for O=C(NC(Cc1ccccc1)C(=O)Nc1cccc2cc[nH]c12)c1cccs1 (centres unmarked) ?
Ans: 12.5

Q: Further, for Cc1ccccc1NC(=O)C(Cc1ccc(O)cc1)NC(=O)c1ccccc1Cl (centres unmarked) ?
Ans: 50

Q: Further, for Cc1ccc(F)cc1NC(=O)C(Cc1ccccc1)NC(=O)c1cccs1 (centres unmarked) ?
Ans: 1.56

Q: Further, for O=C(NC(Cc1ccccc1)C(=O)Nc1cccc2ncsc12)c1ccccc1 (centres unmarked) ?
Ans: 3.12

Q: Further, for O=C(NC(Cc1ccc(O)cc1)C(=O)Nc1ccccc1N1CCOCC1)c1ccccc1F (centres unmarked) ?
Ans: 1.56

Q: Further, for Cc1ccccc1C(=O)NC(Cc1ccccc1)C(=O)Nc1cccc2cnccc12 (centres unmarked) ?
Ans: 3.12

Q: Further, for O=C(NC(Cc1ccccc1)C(=O)Nc1ccccc1N1CCSCC1)c1ccccc1 (centres unmarked) ?
Ans: 3.12

Q: Further, for O=C(NC(Cc1ccccc1)C(=O)Nc1cccc2[nH]ncc12)c1cccc2[nH]ccc12 (centres unmarked) ?
Ans: 25

Q: Further, for O=C(NC(Cc1ccc(O)cc1)C(=O)Nc1cccc2c1OCCO2)c1ccccc1Br (centres unmarked) ?
Ans: 6.25

Q: Further, for O=C(NC(Cc1ccccc1)C(=O)Nc1cccc2[nH]ccc12)c1ccccc1 (centres unmarked) ?
Ans: 12.5

Q: Further, for O=C(NC(Cc1ccccc1)C(=O)Nc1cccc2c1OCCO2)c1ccccc1 (centres unmarked) ?
Ans: 6.25

Q: Further, for O=C(NC(Cc1ccccc1)C(=O)Nc1ccccc1N1CCNCC1)c1cccc2[nH]ccc12 (centres unmarked) ?
Ans: 3.12

Q: Further, for Cc1ccccc1C(=O)NC(Cc1ccccc1)C(=O)Nc1ccccc1N1CCOCC1 (centres unmarked) ?
Ans: 0.78
